- TARGET OR SYSTEM: ALK2 R206H (GST-tagged mutant ALK2) (Homo sapiens, UniProt Q04771, R206H)
- Construct: purchased Carna Bioscience or ThermoFisher 09-148 or PV6232
- Sequence (Q04771 21-509 R206H): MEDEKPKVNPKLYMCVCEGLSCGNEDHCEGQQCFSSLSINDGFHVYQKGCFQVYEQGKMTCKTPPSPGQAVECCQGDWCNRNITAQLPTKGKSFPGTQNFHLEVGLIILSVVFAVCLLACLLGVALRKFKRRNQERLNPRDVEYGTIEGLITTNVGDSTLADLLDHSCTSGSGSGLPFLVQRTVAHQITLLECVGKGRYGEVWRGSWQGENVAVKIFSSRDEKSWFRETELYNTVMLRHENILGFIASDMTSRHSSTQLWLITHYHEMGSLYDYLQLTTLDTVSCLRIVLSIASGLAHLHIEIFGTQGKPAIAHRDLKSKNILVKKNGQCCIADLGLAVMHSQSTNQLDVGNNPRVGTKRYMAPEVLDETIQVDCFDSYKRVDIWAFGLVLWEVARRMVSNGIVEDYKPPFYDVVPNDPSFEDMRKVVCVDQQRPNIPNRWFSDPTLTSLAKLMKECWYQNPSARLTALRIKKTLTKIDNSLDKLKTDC
- EXPERIMENTAL DETAILS: ALK binding assay (LANTHASCREEN TR-FRET competitive binding, displacement of Kinase Tracer 178)
- SETUP CONDITIONS: ALK2 R206H, LANTHASCREEN TR-FRET competitive binding; read-out: Binding Assay (IC50)
- Procedure: Binding assays were conducted using the LANTHASCREEN® technology (ThermoFisher Scientific). LANTHASCREEN® is a competitive binding, displacement assay where the assumed steady state occupancy of the binding site is measured using a time-resolved, fluorescence energy transfer (TR-FRET) readout between a fluorescent tracer and Europium (Eu)-tagged antibody specific for the kinase or expression tag (e.g. GST) of interest. […]
pIC50: −log10 of the molar value.
Hi there, I'd appreciate the recorded pIC50 for every entry that follows.

Batch request: pIC50 for each of the following compounds.
1. COC1(c2ccc(-c3cc4c(N5CCN(C(=O)C6CC6)CC5)ccnn4c3)nc2)CCN([C@@H](C)COC(F)F)CC1 [Compound 886]
2. COC1(c2ccc(-c3cc4c(N5CCN(C(=O)OC6COC6)CC5)ccnn4c3)nc2)CCN(C(C)C)CC1 [Compound 846]
3. CC[C@@H](C)N1CCC(c2ccc(-c3cc4c(N5CCN(C(=O)C6CC6)CC5)ccnn4c3)cc2)CC1 [Compound 563]

Reply:
> 8.00
> 8.00
> 8.00

Batch request: pIC50 for each of the following compounds.
1. O=C(OC(CO)CO)N1CCN(c2ccnn3cc(-c4ccc(C5CCNCC5)cc4)cc23)CC1 [Compound 789]
2. CC(C)NC(=O)N1CCN(c2ccnn3cc(-c4ccc([C@H]5CCCN(C(C)C)C5)cc4)cc23)CC1 [Compound 578]
3. CCO[C@]1(c2ccc(-c3cc4c(N5CCN(C(=O)OC6COC6)CC5)ccnn4c3)nc2)CCCNC1 [Compound 818]
4. CCNC(=O)N1CCN(c2ccnn3cc(-c4ccc([C@@]5(OC)CCCN(C(C)C)C5)cn4)cc23)CC1 [Compound 646]

Reply:
> 8.00
> 8.00
> 8.00
> 8.00

Batch request: pIC50 for each of the following compounds.
1. CC(C)N1CCC(c2ccc(-c3cc4c(N5CCN(C(=O)OC6COC6)CC5)ccnn4c3)c(Cl)c2)CC1 [Compound 726]
2. O=C(C1CC1)N1CCN(c2ccnn3cc(-c4ccc([C@@H]5CCNC[C@@H]5F)cc4)cc23)CC1 [Compound 176]
3. NC(CO)c1ccc(-c2cc3c(N4CCN(C(=O)C5CC5)CC4)ccnn3c2)c(F)c1 (centres unmarked) [Compound 759]

Reply:
> 8.00
7.30 to 8.00
> 8.00

Batch request: pIC50 for each of the following compounds.
1. CCN1CCC(c2ccc(-c3cc4c(N5CCN(C(=O)CC6CC6)CC5)ccnn4c3)cc2)C1 (centres unmarked) [Compound 205]
2. COC1(c2ccc(-c3cc4c(N5CCN(C(=O)OC6COC6)CC5)ccnn4c3)cc2)CCN([C@@H](C)COC(F)F)CC1 [Compound 896]
3. CN1CCn2c(cnc2-c2cc3c(N4CCN(C(=O)C5CC5)CC4)ccnn3c2)C1 [Compound 106]
4. CCN1C[C@@H]2C[C@H]1CN2c1ccc(-c2cc3c(N4CCN(C(=O)C5CC5)CC4)ccnn3c2)cc1 [Compound 242]
5. CC(C)N1CC[C@H](c2ccc(-c3cc4c(N5CCN(C(=O)C6CC6)[C@H](C)C5)ccnn4c3)cc2)C1 [Compound 253]
6. CC(C)N1CCOCC1c1ccc(-c2cc3c(N4CCN(C(=O)C5CC5)CC4)ccnn3c2)cc1 (centres unmarked) [Compound 520]

Reply:
1. 7.30 to 8.00
2. > 8.00
3. < 7.30
4. > 8.00
5. > 8.00
6. > 8.00

Batch request: pIC50 for each of the following compounds.
1. CCN1CCN(CCOc2ccc(-c3cc4c(N5CCN(C(=O)C6CC6)CC5)ccnn4c3)cc2)CC1 [Compound 390]
2. CC(C)N1CC[C@H](c2ccc(-c3cc4c(N5CCN(C(=O)[C@H]6CC[C@H](C#N)CC6)CC5)ccnn4c3)nc2)C1 [Compound 703]
3. CC(C)N1CCC(c2ccc(-c3cc4c(N5CCN(C(=O)C6CC6)CC5)ccnn4c3)cc2)CC1 [Compound 246]
4. COC1(c2ccc(-c3cc4c(N5CCN(C(=O)NC(C)C)CC5)ccnn4c3)cc2)CCN([C@@H](C)COC(F)F)CC1 [Compound 892]
5. CCOC(=O)N1CCN(c2ccnn3cc(-c4ccc([C@@]5(F)CCCN(C(C)C)C5)cn4)cc23)CC1 [Compound 614]
6. COC1(c2ccc(-c3cc4c(N5CCN(C(=O)OC6COC6)CC5)ccnn4c3)cc2)CCOCC1 [Compound 799]

Reply:
7.30 to 8.00
> 8.00
> 8.00
> 8.00
> 8.00
> 8.00

Reported pIC50 of CCNC(=O)N1CCN(c2ccnn3cc(-c4ccc([C@@H]5CCCN(C(C)C)C5)cn4)cc23)CC1 [Compound 538] : > 8.00
